Where do these numbers come from? They come from ChEMBL document CHEMBL4400518.

Entries and their measured MIC follow.
System: Enterococcus faecalis
Test Details: Antibacterial activity against Enterococcus faecalis CMCC 29212 measured after 24 hrs by ELISA
Type: functional
Experimental Setup: CMCC 29212, 24 h

Sample answers from the record:
Q. Query the reported MIC for Enterococcus faecalis; item: NC(=S)N/N=C\c1cn(S(=O)(=O)c2ccccc2)c2ccccc12
A. > 358 µM

Q. Which MIC is reported with Enterococcus faecalis for this entry: NC(=O)N/N=C\c1cn(S(=O)(=O)c2ccccc2)c2ccccc12 ?
A. > 374 µM

Q. Item: CC/C(=N/NC(N)=S)c1cn(S(=O)(=O)c2ccc(C)cc2)c2ccccc12 Test system: Enterococcus faecalis Read-out: MIC Value: ?
A. > 320 µM

Q. # value lookup — system Enterococcus faecalis, readout MIC, item CC/C(=N/NC(N)=S)c1cn(S(=O)(=O)c2ccccc2)c2ccc(Br)cc12
A. > 276 µM

Now consider the entry below.
Q. Short answer please: MIC, Enterococcus faecalis, entry CC/C(=N/NC(N)=S)c1cn(S(=O)(=O)c2ccc(C)cc2)c2ccc(Br)cc12
A. > 268 µM
